All figures here come from PubChem BioAssay (NCI).

Test system: NCI-H322M lung
Experiment: NCI-60 one-dose screen, 48 h (100 = growth as untreated, 0 = no growth, -100 = all killed)
Conditions: 10 µM unless noted
Compounds without any hit were thinned out: in the full panel of roughly 83,000, 20% have a hit.
We use 90% as the dividing line for growth: on or above the line is label 1, below is label 0.

COc1cccc(/C=C\C(=O)c2ccccc2)c1 : label 0
N=S(=O)(NC(=O)c1ccc(Cl)cc1Cl)c1ccc(Br)s1 (stereo unspecified) : label 1
C=C1CC[C@@H]2[C@](C)(COC(C)=O)[C@H](OC(C)=O)CC[C@@]2(C)[C@@H]1CC(NCc1ccc(F)cc1)C1=CCOC1=O (stereo partly specified) : label 0
CN(C)c1ccc(/C=C\C2=[N+](C)c3ccccc3C2(C)C)cc1 : label 0
COc1ccc(-c2cc(C(=O)N=Nc3c(O)[nH]c4ccccc34)no2)cc1 : label 1

Next up:
INPUT: hey, is growth for this one >= 90%? `CN(C)C(=O)c1cc2cnc(Nc3ccc(-c4csc5c(=O)cc(N6CCNCC6)oc45)cc3)nc2n1C1CCCC1`
OUTPUT: label 0
